Values from PubChem BioAssay (NCI)

tested on: NCI-H522 lung; test: NCI-60 one-dose screen, 48 h (100 = growth as untreated, 0 = no growth, -100 = all killed); details: 10 µM unless noted
About 83,000 compounds went through this panel and 20% of them were active in at least one assay; those are over-represented in the sample as a whole.
# Lookup of reported growth keyed by entry

| molecule | assayTarget | growth [%] |
| --- | --- | --- |
| CS(=O)(=O)c1ccc(-c2nc3cc(Cl)ccc3n2CC(=O)NO)cc1 | NCI-H522 lung | 86.3 |
| Oc1ccccc1-c1nc2ccccn2c1NCCN1CCOCC1 | NCI-H522 lung | 84 |
| CC(C)(C)c1ccc(C(=O)Nc2sc3c(c2C(N)=O)CCC(=O)C3)cc1 | NCI-H522 lung | -10.2 |
| CCn1nc(C#Cc2c(C)ccc3c(Nc4ccc(Cl)cc4)nccc23)c2c(N)ncnc21 | NCI-H522 lung | -15.4 |
| O=C(Nc1cccc2[nH]c(C(F)(F)F)nc12)c1cc(Cl)ccc1Cl | NCI-H522 lung | -13.2 |
| CCOC(=O)c1ccc(NC(=O)CCCN(CC)CC)cc1 | NCI-H522 lung | 63.6 |
| O[C@H]1CO[C@H]2[C@@H]1OC[C@@H]2Oc1ccc(Nc2nc(Nc3ccc(F)c(Cl)c3)ncc2F)cc1Cl | NCI-H522 lung | 98.4 |
| N#Cc1c(NC(=O)c2ccccc2I)sc2c1CCCC2 | NCI-H522 lung | 24.6 |
| Cc1[nH]c(-c2nc3ccccc3[nH]2)c(C)c1C(=O)N1CCOCC1 | NCI-H522 lung | 91 |
| Nc1c(C(=O)Nc2ccccc2)sc2nc3c(cc12)CCCCCC3 | NCI-H522 lung | -11.6 |
| Cc1cn(C2CCCCC2)c(=O)[nH]c1=O | NCI-H522 lung | 97.8 |
| COc1ccc(/C(C)=C(\c2ccc(Cl)cc2)c2ccc(OCCN3CCCCCC3)cc2)cc1F | NCI-H522 lung | 65.9 |
| CCCCN1CCN(c2ccc3nc(-c4ccc5nc(-c6cc(OC)c(OC)c(OC)c6)[nH]c5c4)[nH]c3c2)CC1 | NCI-H522 lung | 52.8 |
| CN1C(=O)CCC(N2C(=O)c3cccc(NCCOCCOCCNC(=O)c4cc5c(o4)C(=O)c4ccccc4C5=O)c3C2=O)C1=O (stereo not given) | NCI-H522 lung | -35 |
| Cc1cc2c(F)c(Oc3ncnc(Nc4ccc(N5C[C@@H](C)N[C@@H](C)C5)cc4)c3C#N)cc(F)c2[nH]1 | NCI-H522 lung | -21.8 |
| COc1ccc(/C=C2\C=C(c3ccccc3)N(CCc3ccccc3)C2=O)cc1OC | NCI-H522 lung | 42.5 |
| Cc1csc(NC(=O)c2sc3nc(-c4cccs4)ccc3c2N)n1 | NCI-H522 lung | 82.3 |
| Cc1cc(N(CCCNc2ccnc3cc(Cl)ccc23)Cc2ccccn2)nc(N2CCOCC2)n1 | NCI-H522 lung | 74.7 |
| O=C1NC(=S)S/C1=C\N1N=C(c2ccc(Cl)cc2)CC1c1ccc(F)cc1 (stereo not given) | NCI-H522 lung | 76.1 |
| CCNCCNc1cc(-c2ccc(C#N)cc2)c(C#N)c2nc3ccccc3n12 | NCI-H522 lung | 31.8 |
| C[C@@H]1C(=O)N(C[C@H](Cc2ccccc2)N(Cc2ccccc2)Cc2ccccc2)[C@]1(Cc1ccccc1)C(=O)OC(C)(C)C | NCI-H522 lung | 50.9 |
| COc1ccccc1NC(=O)Nc1ccc(-c2nc3ccccc3o2)cc1 | NCI-H522 lung | 112 |
| C=C(C)[C@@H]1CC[C@]2(CN)CC[C@]3(C)[C@H](CC[C@@H]4[C@@]5(C)CCC(N)[C@@](C)(CO)[C@@H]5CC[C@]43C)[C@@H]12 (stereo not given in full) | NCI-H522 lung | -77.5 |
| C=C1C(=O)O[C@H]2[C@H]1CC/C(Cn1cc(CNCCc3c[nH]c4ccccc34)nn1)=C\CC[C@@]1(C)O[C@@H]21 | NCI-H522 lung | 3.17 |
| CC(C)OC(=O)NNC(=O)c1ccncc1 | NCI-H522 lung | 88.9 |
| Cl.Fc1c[c-]c(-c2ccccn2)c(F)c1.[Pt].c1ccc(P(c2ccccc2)C([PH+](c2ccccc2)c2ccccc2)[PH+](c2ccccc2)c2ccccc2)cc1 | NCI-H522 lung | 12 |
| O=C(O)CC1Sc2ccccc2NC1=O (stereo not given) | NCI-H522 lung | 81 |
| O=C(Oc1ccc[nH]c1=O)c1cc([N+](=O)[O-])cc([N+](=O)[O-])c1 | NCI-H522 lung | 116 |
| C=C1c2c(C)nn(-c3ccc(N)cc3)c2N(C)C23CC1C1(C)c4c(C)nn(-c5ccc(N)cc5)c4N(C)C(C)(CC12)C3 (stereo not given) | NCI-H522 lung | 62.3 |
| CNC=O | NCI-H522 lung | 94.9 |
| COc1cc2c(O)n(CCCn3ccnc3)c3c4cnc5cccc(c(=O)c3c2cc1OC)c54 | NCI-H522 lung | 18.7 |
| NC(=O)c1c(NC(=O)c2ccccn2)sc2c1CCC(=O)C2 | NCI-H522 lung | -13.5 |
| OC(c1cccc(OCc2ccccc2)c1)c1nnc(-c2ccccc2)o1 (stereo not given) | NCI-H522 lung | 79.2 |
| O=c1[nH]c(=O)n(C2CC(O)C(CO)O2)cc1CO (stereo not given) | NCI-H522 lung | 101 |
| O=C(O)c1ccccc1C(=O)Nc1ccc(Cl)cc1 | NCI-H522 lung | 91 |
| O=C(O)C1C[C@](O)(c2ccc(F)cc2)[C@@H](c2ccc(F)cc2)O1 (stereo not given in full) | NCI-H522 lung | 91.5 |
| c1ccc2[nH]c(SSc3nc4ncncc4[nH]3)nc2c1 | NCI-H522 lung | 35.6 |
| COC(=O)c1ccc2oc(NC(=O)c3ccc(N4CCOCC4)c([N+](=O)[O-])c3)nc2c1 | NCI-H522 lung | 91 |
| CCN(CC)CCOc1ccc(/C(=C(\C)c2ccc(F)c(OC)c2)c2ccc(Cl)cc2)cc1 | NCI-H522 lung | 26.9 |
| NC(=S)c1csc(CCNC(=O)c2ccccc2)n1 | NCI-H522 lung | 106 |
